Hey, just so you know, these numbers are from patent US20200140562A1.

Recorded measurements of MFI, one per entry
Target: T1, human OX40 on cells (CHO-hOX40, 293HEK-hOX40, Jurkat-hOX40, activated primary CD4+ T cells) (human, UniProt P43489 29-277)
T1 construct: whole, on cells; The cell type is told in each assay; also called CHO-OX40
T1 sequence (looked up): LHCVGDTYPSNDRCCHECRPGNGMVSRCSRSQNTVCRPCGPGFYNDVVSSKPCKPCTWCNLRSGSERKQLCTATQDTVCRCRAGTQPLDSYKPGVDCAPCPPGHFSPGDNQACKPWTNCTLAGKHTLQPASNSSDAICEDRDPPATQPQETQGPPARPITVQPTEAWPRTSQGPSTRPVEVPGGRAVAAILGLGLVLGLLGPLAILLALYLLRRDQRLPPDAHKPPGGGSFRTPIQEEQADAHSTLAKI
Assay: flow cytometry, 293HEK-hOX40, 8 nM
parameter.measured: MFI

binder	result
ADI-20048, IgG1 format (antibody, V domains shown, Made in yeast) VH: QVQLQESGPGLVKPSETLSLTCTVSGGSISSYYWSWIRQPPGKGLEWIGYIYSSGSTNYNPSLKSRVTISVDTSKNQFSLKLSSVTAADTAVYYCARDAPGGSSYQDYYMDVWGKGTTVTVSS VL: EIVLTQSPATLSLSPGERATLSCRASQSVSSYLAWFQQKPGQAPRLLIYDASNRATGIPARFSGSGSGTDFTLTISSLEPEDFAVYYCQQAFSMPPTFGGGTKVEIKR	1.73e+06 MFI
IgG1 control (antibody, V domains shown, Negative control; The printed entries seem to begin with a leader peptide) VH: EVRLLESGGGLVQPGGSLRLSCAASGFTFSNYAMGWVRQAPGKGLEWVSAISGSGGSTYYADSVKGRFTTSRDDSKNALYLQMNSLRAEDTAVYYCARGGPGWYAADVWGQGTTVTVSS VL: DIQMTQSPSSLSASVGDRVTITCRASQSISSYLNWYQQKPGKAPKLLIYAASSLQSGVPSRFSGSGSGTDFTLTISSLQPEDFATYYCQQADLPAFAFGGGTKVEIKR	5310 MFI
ADI-20066, IgG1 format (antibody, V domains shown, Made in yeast) VH: QLQLQESGPGLVKPSETLSLTCTVSGGSISSSSYYWGWIRQPPGKGLEWIGSIYYSGSTYYNPSLKSRVTISVDTSKNQFSLKLSSVTAADTAVYYCARDPGYSASPNWFDPWGQGTLVTVSS VL: EIVLTQSPGTLSLSPGERATLSCRASQSVSSSFLAWYQQKPGQAPRLLIYGASSRATGIPDRFSGSGSGTDFTLTISRLEPEDFAVYYCQQYDVFPITFGGGTKVEIKR	2.82e+06 MFI
